Hey, just so you know, these numbers are from PubChem BioAssay (NCI).

Each entry below carries its recorded TGI.
system: MALME-3M melanoma; assay: NCI tumour cell line growth inhibition, 48 h

| compound | TGI |
| --- | --- |
| COc1cc(C2CC(c3ccc(Nc4ccnc5cc(Cl)ccc45)cc3)=NN2C=O)cc(OC)c1OC (stereo not given) | 8.32 µM |
| O=c1oc2ccc(F)cc2c(=O)n1-c1ccc(Cl)cc1F | 2.51 µM |
| CCCCCCCCCCCCCCCCOC(=O)c1c(C)[nH]c(/C=C2\N=C(c3ccc[nH]3)C=C2OC)c1C | 29.8 µM |
| CCC[CH2][Sn]1([CH2]CCC)[O]C(=O)c2cccc(OC)c2[O]1 | 0.633 µM |
| O=c1oc2cccnc2n1CCN1CCN(c2ccc(Oc3ccccc3)cc2)CC1 | > 100 µM |
| CCOP(=O)(OCC)/C(C#N)=C/c1ccc[nH]1 | > 100 µM |
| c1ccc2c(-c3nc4ccccc4[nH]3)cccc2c1 | 34.9 µM |
| O=C(O)CSc1nnc(CCCCCCCCc2nnc(SCC(=O)O)o2)o1 | > 100 µM |
| Cn1c(=O)c2c(ncn2CCSS(=O)(=O)O)n(C)c1=O | > 100 µM |
| NC1=NN(c2ccccc2)C2(c3ccncc3C(=O)O)C1C(N)=NN2c1ccccc1 (stereo not given) | > 100 µM |

====

Each entry below carries its recorded GI50.
tested on: SF-268 CNS; test: NCI tumour cell line growth inhibition, 48 h

| molecule | subjectOfTest | GI50 |
| --- | --- | --- |
| NC(N)=N/N=C(/c1ccccc1)c1ccc(Cl)cc1 | SF-268 CNS | 8440 nM |
| CC(C)=CCc1ccc(O)c(=O)cc1C(C)C | SF-268 CNS | 671 nM |
| COc1cc2c(cc1OCCCCCn1c(-c3ccco3)nc3ccccc31)N=C[C@@H]1CCCN1C2=O | SF-268 CNS | < 10 nM |
| COc1cc2c3c(n(CCCNC(=O)OCC4c5ccccc5-c5ccccc54)c(=O)c2cc1OC)-c1cc2c(cc1C3=O)OCO2 | SF-268 CNS | 16600 nM |
| Cc1ccc(/C=C/C(=O)c2ccc(N)cc2)c(C)c1 | SF-268 CNS | 1880 nM |
| COc1cc(C2CC(c3ccc(Nc4ccnc5cc(Cl)ccc45)cc3)=NN2C=O)cc(OC)c1OC (centres undefined) | SF-268 CNS | 28000 nM |
| N#Cc1c(NC(=O)c2cccc3ccccc23)sc2c1CCCC2 | SF-268 CNS | 171 nM |
| C/C1=C\CC[C@@]2(C)O[C@@H]2C[C@@H]2[C@H](C/C(C)=C/CC1)OC(=O)C21CCN=N1 (some centres undefined) | SF-268 CNS | > 100000 nM |
| O=C1/C(=C/c2ccc(Cl)cc2)CN(Cc2cn(CCNc3ccnc4cc(Cl)ccc34)nn2)C/C1=C\c1ccc(Cl)cc1 | SF-268 CNS | 270 nM |

====

tested on: OVCAR-8 ovarian; experiment: NCI tumour cell line growth inhibition, 48 h; in the data active = GI50 below about 0.43 µM; inactive = the rest
Labels: active, inactive

| molecule | qualitativeLabel |
| --- | --- |
| c1ccc2c(-c3nc4ccccc4[nH]3)cccc2c1 | inactive |
| O=C(Nc1cccc([N+](=O)[O-])c1)c1ccc2ccccc2c1O | inactive |
| Cc1cc(NCCCCNc2ccnc3cc(Cl)ccc23)nc(Nc2ccc(C(=O)N3CCCC3)cc2)n1 | inactive |
| COc1cc2c3c(n(CCCNC(=O)OCC4c5ccccc5-c5ccccc54)c(=O)c2cc1OC)-c1cc2c(cc1C3=O)OCO2 | inactive |
| COc1cc(Nc2ncc3c(C)nc(-c4cccc(Oc5ccccc5)c4)n3n2)cc(OC)c1OC | inactive |
| CC1(C)N=C(N)N=C(N)N1c1ccc(OCC(=O)N2CCOCC2)c(Cl)c1 | inactive |
| COc1cc(C(=O)/C=C/c2c(-c3ccc(F)cc3)nc3ncccn23)cc(OC)c1OC | inactive |
| CCN(CC)CCCNc1nc2ccccc2c2c(=O)c3cc(Cl)ccc3sc12 | inactive |
| CCOCC(=O)N[C@H]1CCc2cc(OC(=O)COCC)c(OC)c(OC)c2-c2ccc(SC)c(=O)cc21 | active |
| O=C(Nc1ccc(Cl)cc1)c1ccc([N+](=O)[O-])o1 | inactive |
| O=C(Nc1cccnc1)c1cccc([N+](=O)[O-])c1 | inactive |
| CC(=O)c1c(O)ccc2c(C)c(C(=O)O)oc12 | inactive |
| COc1ccc(Cn2cnc3cc(C(=O)Nc4cccc5ccccc45)ccc32)c(OC)c1 | active |
| COc1cc2c(cc1OCCCCCn1c(-c3ccco3)nc3ccccc31)N=C[C@@H]1CCCN1C2=O | active |
| O=C(NCC(=O)N1CC[C@H](NC2CCC(O)(c3ccc(-c4ncccn4)cn3)CC2)C1)c1cccc(C(F)(F)F)c1 (some centres not stated) | inactive |
| CN1C(=O)c2cc([N+](=O)[O-])ccc2[C@H]2C(=O)c3cc4c(cc3[C@H]21)OCO4 | active |
| COc1cc(/C=C/C(=O)C(C(=O)/C=C/c2ccc(OC(=O)CCNc3nnc(C)s3)c(OC)c2)C(=O)CCNc2nnc(C)s2)ccc1OC(=O)CCNc1nnc(C)s1 | inactive |

====

Each entry below carries its recorded TGI.
test system: UACC-62 melanoma; experiment: NCI tumour cell line growth inhibition, 48 h

| compound | resultQualifier | TGI (µM) |
| --- | --- | --- |
| CCN(CC)CCCNc1nc2ccccc2c2c(=O)c3cc(Cl)ccc3sc12 | = | 3.39 |
| CC(=O)[O-].[Ni].c1ccc(/C(=N\Nc2ccccn2)c2ccccn2)cc1 | = | 18.8 |
| CN(C)CS/C(N)=N\C(O)C(Cl)(Cl)Cl (stereo not drawn) | > | 100 |
| O=C(Nc1cccnc1)c1cccc([N+](=O)[O-])c1 | > | 100 |
| Cn1cnc([N+](=O)[O-])c1Sc1nc2cccnc2s1 | = | 32 |
| CC(=O)OC1(C#N)CC2OC1C1C2N1C(=O)OC(C)(C)C (stereo not drawn) | > | 100 |
| CCN(CC)c1nc(N(C)C)c2ccc(OC)cc2n1 | = | 24.8 |
| Cc1cc(Cl)ccc1NC(=O)CC1SC(N)=NC1=O (stereo not drawn) | > | 100 |
| COc1cc(C=Nc2ccc(S(N)(=O)=O)cc2)cc(OC)c1 | > | 50 |
| O=c1[nH]cc(N(CCCl)CCCl)c(=O)[nH]1 | = | 60.6 |
| O=c1oc2ccc(F)cc2c(=O)n1-c1ccc(Cl)cc1F | = | 1.56 |
| COc1ccc(C(=O)Cn2c(C(C)=O)nc3ccccc32)cc1 | > | 92.9 |
| O=C1Nc2ccccc2/C1=C/c1cn(C(=O)c2c(Cl)cccc2Cl)c2ccccc12 | = | 19.9 |
| N#CCC12CC=CCC1=C(O)C(=O)c1ccc(O)cc12 (stereo not drawn) | > | 100 |
| COc1ccc(Cn2cc3c(c2-c2ccc(O)cc2)CCc2cnoc2-3)cc1 | = | 17.6 |
| O=C(O)c1cncc(C(=O)O)c1 | > | 100 |
| COc1ccc(C(=O)/C=C/c2ccc(OCC(=O)O)cc2)cc1 | > | 100 |
| O=NNc1cnccn1 | > | 1220 |

====

system: M14 melanoma; assay: NCI tumour cell line growth inhibition, 48 h
Each entry below carries its recorded TGI.

| compound | TGI |
| --- | --- |
| CC(C)/C(Cl)=N\OC(=O)Nc1ccc(F)c([N+](=O)[O-])c1 | > 32.4 µM |
| C[N+](C)(C)Cc1c(CC#N)[nH]c2ccccc12 | > 100 µM |
| CCN(CC)CCC(=O)c1ccccc1 | 31.5 µM |
| CC(=O)c1c(O)ccc2c(C)c(C(=O)O)oc12 | > 100 µM |
| NC(CCCCN=Cc1nc(-c2ccccc2)oc1O)C(=O)O (configuration not stated) | > 100 µM |
| COc1cc(C2CC(c3ccc(Nc4ccnc5cc(Cl)ccc45)cc3)=NN2C=O)cc(OC)c1OC (configuration not stated) | 13.9 µM |
| COc1cc(OC)c2cc(C(=O)O)c(=O)oc2c1 | > 100 µM |
| O=C1CSC(=S)N1Cc1cccnc1 | 39.4 µM |
| COC(=O)c1cc2c3ccccc3n3c(=O)c4cc5cc(OC)c(N(S(=O)(=O)c6ccc(C)cc6)S(=O)(=O)c6ccc(C)cc6)cc5nc4c(n1)c23 | > 100 µM |
| Cc1ccc(-c2nc3c(C(=O)NCCN(C)C)cccc3[nH]2)cc1 | 29.2 µM |
| O=C1/C(=C/c2ccc(Cl)cc2)N=C(c2ccccc2)N1C1Nc2cc3c(cc2S1)NC(N1C(=O)/C(=C/c2ccc(Cl)cc2)N=C1c1ccccc1)S3 (configuration not stated) | > 100 µM |
| C=CCOC(=O)CCCCCCCCCCCCCCCOC(=O)c1c(CCC[C@@H](C)O[Si](C)(C)C(C)(C)C)nc(=O)n2c1CC[C@H]2CC1(CC/C=C\[C@H](CC)O[Si](C(C)C)(C(C)C)C(C)C)OCCO1 | > 100 µM |
